# Test system: human lung cancer strain NCI-H441
# Format: cell-based
PROPERTY_NAME: IC50

MOLECULE	ASSAY_RESULT
CCO[C@@H]1C[C@H]2C(=O)NC3(CC(C)(C)C3)C(=O)N(C)[C@@H](C3CCCC3)C(=O)N(C)[C@H](C(=O)N(C)C)CC(=O)N(C)[C@@H]([C@H](C)OC)C(=O)N[C@@H]([C@@H](C)CC)C(=O)N(C3CC3)CC(=O)N(C)[C@H]3C/C=C\CCN(C3=O)[C@@H](Cc3ccc(C)cc3)C(=O)N(C)CC(=O)N[C@@H](CCc3cc(F)c(C(F)(F)F)c(F)c3)C(=O)N2C1 [PP3193]	21.1 nM

Now look at this entry.
*Q* Give the value of IC50 reported for the following: CC[C@H](C)[C@@H]1NC(=O)[C@H](CC(C)C)N(C)C(=O)C[C@@H](C(=O)N(C)C)N(C)C(=O)[C@H](C2CCCC2)N(C)C(=O)C2(CCCC2)NC(=O)[C@@H]2CCCN2C(=O)[C@H](CCc2cc(F)c(C(F)(F)F)c(F)c2)NC(=O)CN(C)C(=O)[C@H](Cc2ccc(C(F)(F)F)cc2)N2CCCCC[C@@H](C2=O)N(C)C(=O)CN(CC)C1=O [PP0514]
*A* 311 nM
